molecular target: UniProt P00722
Sequence (P00722 2-1024 limits assumed): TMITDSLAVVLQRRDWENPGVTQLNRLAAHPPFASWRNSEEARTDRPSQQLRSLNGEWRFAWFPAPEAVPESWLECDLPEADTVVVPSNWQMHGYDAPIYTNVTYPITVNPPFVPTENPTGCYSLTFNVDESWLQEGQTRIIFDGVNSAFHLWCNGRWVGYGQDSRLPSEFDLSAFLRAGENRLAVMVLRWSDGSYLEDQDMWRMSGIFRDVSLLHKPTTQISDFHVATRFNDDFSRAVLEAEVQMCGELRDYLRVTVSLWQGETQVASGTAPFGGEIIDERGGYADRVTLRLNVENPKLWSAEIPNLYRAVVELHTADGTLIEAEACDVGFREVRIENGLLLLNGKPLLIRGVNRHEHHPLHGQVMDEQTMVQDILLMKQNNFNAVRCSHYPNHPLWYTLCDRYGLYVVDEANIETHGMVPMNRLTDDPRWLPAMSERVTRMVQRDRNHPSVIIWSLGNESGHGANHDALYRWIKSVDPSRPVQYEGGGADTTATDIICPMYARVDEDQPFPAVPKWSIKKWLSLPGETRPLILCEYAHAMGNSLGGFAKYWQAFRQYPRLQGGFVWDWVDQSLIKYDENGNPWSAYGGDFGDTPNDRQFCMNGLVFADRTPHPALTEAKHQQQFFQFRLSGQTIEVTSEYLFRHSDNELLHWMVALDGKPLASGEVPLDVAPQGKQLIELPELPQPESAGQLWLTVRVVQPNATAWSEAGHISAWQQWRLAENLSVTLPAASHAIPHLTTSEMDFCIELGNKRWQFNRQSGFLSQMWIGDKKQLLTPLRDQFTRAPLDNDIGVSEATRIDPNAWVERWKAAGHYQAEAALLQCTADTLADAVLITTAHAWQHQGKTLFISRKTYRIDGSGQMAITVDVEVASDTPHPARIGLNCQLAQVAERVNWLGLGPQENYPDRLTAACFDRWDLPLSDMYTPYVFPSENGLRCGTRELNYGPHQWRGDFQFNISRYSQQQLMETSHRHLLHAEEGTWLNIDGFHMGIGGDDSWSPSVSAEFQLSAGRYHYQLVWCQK
EXPERIMENTAL_ENDPOINT: pKi
Scale: negative log10 of molar concentration, which is what pKi denotes.

// known answers, use as guide
sample_smiles=N[C@@H]1[C@H](O)[C@@H](O)[C@@H](O)[C@H]1CO value_measured=3.70
sample_smiles=CCCCCCCCCN[C@@H]1[C@H](O)[C@@H](O)[C@@H](O)[C@H]1CO value_measured=4.64
sample_smiles=CN(C)c1cccc2c(S(=O)(=O)NCCCCCCN[C@@H]3[C@H](O)[C@@H](O)[C@@H](O)[C@H]3CO)cccc12 value_measured=5.11

The record that follows has no pKi shown yet.
// map `CCCCCCN[C@@H]1[C@H](O)[C@@H](O)[C@@H](O)[C@H]1CO` to recorded pKi (system: UniProt P00722)
3.92
